B1: FBXO3 (parent)
chain: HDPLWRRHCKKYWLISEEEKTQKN

Variants of: B1
Assay text: protein stability index of a GFP-peptide fusion (GPS, HEK-293T) (PSI 1-6); higher = more stable;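 note: lentivirally expressed fusions sorted by FACS into six bins by GFP to DsRed ratio, PSI derived from sequencing read proportions per bin multiplied by bin number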
Protocol conditions: c terminus: a fixed tail appended
Please respond with reported protein stability index for every item in the list.
One number for each entry.

Mutation descriptor	Assay result
Q22H	2.99
E17T	3.1
E19D	3.17
Y12K	3.89

Shift focus to the following entry.
Fill in: protein stability index of "T21Y" is ___
2.74
